Where these numbers come from: patent US20260209325A1

molecular target: T1, human pro-myostatin (human, UniProt O14793 24-375, biotinylated (in the SPR assay)); experiment: SPR Biacore 8K, biotin-antigen captured
T1 construct: Disulfide-linked homodimer; also called proGDF8 (human)

BINDER	koff [s⁻¹]
Ab139 (antibody, human IgG4 S228P, kappa, V domains shown) VH: EVQLVESGGGLVQPGGSLRLSCAASGFTFSSYGMSWVRQAPGKGLELVASFTGSGAAYYPDSVKGRFTISRDNAKNSLYLQMNSLRAEDTAVYYCARDLLIRFLEWSHYYGMDVWGQGTTVTVSS VL: DIVMTQSPLSLPVTPGEPASISCRSSQSLLHSSGHNFLHWYLQKPGQSPQLLIYESSNRVSGVPDRFSGSGSGTDFTLKISRVEAEDVGVYYCQQQTQYPPTFGGGTKVEIKR	0.0023
Ab127 (antibody, human IgG4 S228P, kappa, V domains shown) VH: EVQLVESGGGLVQPGGSLRLSCTASGFTFGSYPMDWVRQAPGKGLEWVSYISGRGDVTYYADSVKGRFTISRDNAKNTLYLQMNSLRAEDTAVYYCAKVQSPSELLWFGELLPVDYWGQGTLVTVSS VL: DIQMTQSPSSLSASVGDRVTITCQASQVIKTWLNWYQQKPGKAPKLLIYDASNLQRGVPSRFSGSGSGTDFTFTISSLQPEDIATYYCQQSASTPITFGGGTKVEIKR	0.000213
Ab133 (antibody, human IgG4 S228P, kappa, V domains shown, human IgG4 in the EM experiment; also called Ab133 Human IgG4) VH: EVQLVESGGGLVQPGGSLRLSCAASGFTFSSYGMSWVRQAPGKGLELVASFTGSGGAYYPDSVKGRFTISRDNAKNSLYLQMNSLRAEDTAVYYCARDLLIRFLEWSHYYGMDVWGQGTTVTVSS VL: DIVMTQSPLSLPVTPGEPASISCRSSQSLLHSSGHNFLHWYLQKPGQSPQLLIYEVSNRVSGVPDRFSGSGSGTDFTLKISRVEAEDVGVYYCQQQTQYPGTFGGGTKVEIKR	0.000116
